- testConditions: i.v., mice, 1.0-2.0 mg/kg; extrapolated
C0 vs 4000 ng/mL: less than gives met; not less than gives not met.

Here are 4 compounds together with their reported answers.
COc1ccc(C(=O)c2c(C)n(CCN3CCOCC3)c3cc(I)ccc23)cc1; met
CN1CCCC[C@H]1Cn1cc(C(=O)c2cc([N+](=O)[O-])ccc2I)c2ccccc21 [(S)-AM1241]; met
Cc1ccc2c(c1)Cc1c(C(=O)NN3CCCCC3)nn(-c3ccc(Cl)cc3Cl)c1-2; met
CCCCCCC(C)(C)c1cc(OC)c(C2=C[C@H]3CC[C@]2(CO)C3(C)C)c(OC)c1; not met

Prompt: Field: below-cutoff. Rule: recorded C0 strictly less than 4000 ng/mL. Subject: CCCC(C)(C)c1ccc2c(c1)OC(C)(C)[C@@H]1CC=C(C)C[C@@H]21
Response: met

Prompt: Also, CCCn1c(C)c(C(=O)c2cccc3ccccc23)c2ccccc21 please.
Response: met

---

# Lookup of reported Emax ± SEM pERK hCB1R keyed by entry
- system: hCB1R (Homo sapiens)
- Construct: host or cells: CHO
- Sequence (P21554 whole entry): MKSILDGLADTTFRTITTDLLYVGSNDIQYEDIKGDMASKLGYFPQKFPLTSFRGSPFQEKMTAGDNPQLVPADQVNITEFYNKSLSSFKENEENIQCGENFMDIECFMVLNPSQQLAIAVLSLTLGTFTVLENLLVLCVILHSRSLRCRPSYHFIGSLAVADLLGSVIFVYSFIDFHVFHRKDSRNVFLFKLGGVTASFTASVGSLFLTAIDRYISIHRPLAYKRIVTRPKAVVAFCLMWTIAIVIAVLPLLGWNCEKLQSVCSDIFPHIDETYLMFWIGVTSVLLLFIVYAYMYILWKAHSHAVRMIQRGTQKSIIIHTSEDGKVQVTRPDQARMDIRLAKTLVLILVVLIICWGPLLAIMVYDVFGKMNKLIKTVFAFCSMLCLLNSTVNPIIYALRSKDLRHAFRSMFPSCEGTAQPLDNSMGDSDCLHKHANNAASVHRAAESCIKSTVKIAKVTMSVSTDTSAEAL
- experiment: cell-based
- Assay type: cell-based
In your answer, state the number alone without any accompanying words.

CCCC(C)(C)c1ccc2c(c1)OC(C)(C)[C@@H]1CC=C(C)C[C@@H]21; 10
Cc1ccc2c(c1)Cc1c(C(=O)NN3CCCCC3)nn(-c3ccc(Cl)cc3Cl)c1-2; 2

Prompt: Return reported Emax ± SEM pERK hCB1R; argument: CN1CCCCC1Cn1cc(C(=O)c2cc([N+](=O)[O-])ccc2I)c2ccccc21 (racemic) [(rac)-AM1241]
Response: 86

Prompt: What do you get for CN1CCCC[C@H]1Cn1cc(C(=O)c2cc([N+](=O)[O-])ccc2I)c2ccccc21 [(S)-AM1241] ?
Response: 17

Prompt: Repeat with CN1CCCC[C@@H]1Cn1cc(C(=O)c2cc([N+](=O)[O-])ccc2I)c2ccccc21 [(R)-AM1241]
Response: 78

Prompt: Also, CCCCCCC(C)(C)c1cc(OC)c(C2=C[C@H]3CC[C@]2(CO)C3(C)C)c(OC)c1 please.
Response: 12

---

Each entry below lists one item and its recorded ΔLogR GIRK value.
- system: hCB2R (Homo sapiens, UniProt P34972)
- Sequence (P34972 whole entry): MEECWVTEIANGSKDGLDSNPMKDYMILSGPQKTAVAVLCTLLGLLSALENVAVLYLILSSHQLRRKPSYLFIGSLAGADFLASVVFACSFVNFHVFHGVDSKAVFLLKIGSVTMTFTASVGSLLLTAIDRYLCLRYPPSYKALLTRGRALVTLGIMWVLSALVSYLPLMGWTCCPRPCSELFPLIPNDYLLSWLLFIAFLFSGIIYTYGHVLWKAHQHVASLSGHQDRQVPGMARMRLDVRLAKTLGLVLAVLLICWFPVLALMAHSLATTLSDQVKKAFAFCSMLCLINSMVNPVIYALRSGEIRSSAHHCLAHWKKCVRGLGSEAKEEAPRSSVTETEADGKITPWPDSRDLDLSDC
- Design: expressed in transfected cells; host or cells: Flp-In-293 (Invitrogen #R750-07), pcDNA5/FRT
- testConditions: hCB2R, reference CP55940

Some compounds with known ΔLogR GIRK results, for comparison:
CN1CCCC[C@H]1Cn1cc(C(=O)c2cc([N+](=O)[O-])ccc2I)c2ccccc21 [(S)-AM1241]; -2.17
CN1CCCCC1Cn1cc(C(=O)c2cc([N+](=O)[O-])ccc2I)c2ccccc21 (racemic) [(rac)-AM1241]; -2.35
CN1CCCC[C@@H]1Cn1cc(C(=O)c2cc([N+](=O)[O-])ccc2I)c2ccccc21 [(R)-AM1241]; -2.38
CCCCC/C=C\C/C=C\C/C=C\C/C=C\CCCC(=O)NCCO [Anandamide, N-arachidonoylethanolamine]; -3.33
CCCCCCC(C)(C)c1cc(OC)c(C2=C[C@H]3CC[C@]2(CO)C3(C)C)c(OC)c1; -1.96

Prompt: // map CCCCC/C=C\C/C=C\C/C=C\C/C=C\CCCC(=O)OC(CO)CO to recorded ΔLogR GIRK (system: hCB2R (Homo sapiens, UniProt P34972))
Response: -1.47

Prompt: And for CCCCCCC(C)(C)c1cc(OC)c([C@@H]2C=C(CO)[C@@H]3C[C@H]2C3(C)C)c(OC)c1 ?
Response: -1.58
